- Measurement target: CAR (NR1I3) Phe161Ala mutant (Homo sapiens, UniProt Q14994, F161A)
- Sequence (Q14994 whole entry F161A, the tested form may be a part): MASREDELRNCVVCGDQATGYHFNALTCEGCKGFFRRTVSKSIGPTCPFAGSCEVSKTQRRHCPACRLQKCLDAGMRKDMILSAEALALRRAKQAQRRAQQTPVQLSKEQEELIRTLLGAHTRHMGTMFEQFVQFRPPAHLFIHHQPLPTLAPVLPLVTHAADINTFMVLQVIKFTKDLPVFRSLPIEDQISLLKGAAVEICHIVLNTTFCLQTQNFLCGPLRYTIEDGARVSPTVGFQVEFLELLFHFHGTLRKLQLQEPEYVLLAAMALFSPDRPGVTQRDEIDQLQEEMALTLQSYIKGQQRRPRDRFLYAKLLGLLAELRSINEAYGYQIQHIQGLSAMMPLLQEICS
- Procedure summary: Activation of human CAR Phe161Ala mutant expressed in human C3A cells at 4 uM after 24 hrs by GAL4-dependent luciferase reporter gene assay relative to control
- Type: cell-based
- Experimental conditions: C3A cells expressing human CAR Phe161Ala mutant, read-out: FC
Endpoint label: fold induction at 24 h, 4 µM

Compound	Readout number
Clc1ccccc1C(c1ccccc1)(c1ccccc1)n1ccnc1 [CLOTRIMAZOLE]	13.1

====

- Measurement target: CAR (NR1I3) Asn165Ala mutant (Homo sapiens, UniProt Q14994, N165A)
- Sequence (Q14994 whole entry N165A, the tested form may be a part): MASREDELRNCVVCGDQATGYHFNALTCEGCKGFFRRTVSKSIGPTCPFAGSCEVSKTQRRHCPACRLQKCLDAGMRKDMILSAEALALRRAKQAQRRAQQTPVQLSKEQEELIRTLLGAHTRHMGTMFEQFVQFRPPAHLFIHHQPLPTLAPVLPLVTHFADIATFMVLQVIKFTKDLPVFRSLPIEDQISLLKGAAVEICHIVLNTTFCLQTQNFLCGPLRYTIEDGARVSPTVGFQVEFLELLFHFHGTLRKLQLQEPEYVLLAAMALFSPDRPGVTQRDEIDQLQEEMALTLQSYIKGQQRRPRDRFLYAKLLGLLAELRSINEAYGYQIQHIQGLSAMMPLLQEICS
- Procedure summary: Activation of human CAR Asn165Ala mutant expressed in human C3A cells at 4 uM after 24 hrs by GAL4-dependent luciferase reporter gene assay relative to control
- Assay type: cell-based
- Experimental conditions: C3A cells expressing human CAR Asn165Ala mutant, read-out: FC
Endpoint label: fold induction at 24 h, 4 µM

Smiles notation	Readout number
Clc1ccccc1C(c1ccccc1)(c1ccccc1)n1ccnc1	4.47

====

- Measurement target: CAR (NR1I3) ligand-binding domain, wild type (Homo sapiens)
- Sequence (Q14994 whole entry, the tested form may be a part): as the sequence (Q14994 whole entry N165A, the tested form may be a part) above, with A165N counted along it
- Procedure summary: Activation of human CAR-LBD expressed in human C3A cells at 10 uM after 24 hrs by GAL4-dependent luciferase reporter gene assay relative to control
- Format: cell-based
- Experimental conditions: C3A cells expressing human CAR-LBD, read-out: FC
Some compounds, each annotated with its measured fold induction at 24 h, 10 µM.
Endpoint label: fold induction at 24 h, 10 µM

Smiles notation	Endpoint label	Readout number
CCc1cccc(NC(=O)N(CC)[C@H](C)Cc2ccc(OC)cc2)c1	fold induction at 24 h, 10 µM	1.86
O=S(=O)(NCc1csc2ccccc12)c1cccs1	fold induction at 24 h, 10 µM	1.76
C[C@@H]1Cc2ccccc2N1S(=O)(=O)c1cccc2nsnc12	fold induction at 24 h, 10 µM	5.22
Cc1cccc(NC(=O)N2CCN(c3cccc(C)c3)[C@H](C)C2)c1	fold induction at 24 h, 10 µM	1.45
CSCCN1C(=O)CS[C@@H]1c1ccc(Br)s1	fold induction at 24 h, 10 µM	2.97

====

- Measurement target: CAR (NR1I3) His203Ala mutant (Homo sapiens, UniProt Q14994, H203A)
- Sequence (Q14994 whole entry H203A, the tested form may be a part): as the sequence (Q14994 whole entry N165A, the tested form may be a part) above, with A165N, H203A counted along it
- Procedure summary: Activation of human CAR His203Ala mutant expressed in human C3A cells at 4 uM after 24 hrs by GAL4-dependent luciferase reporter gene assay relative to control
- Assay type: cell-based
- Experimental conditions: C3A cells expressing human CAR His203Ala mutant, read-out: FC

Compound	fold induction at 24 h, 4 µM
Clc1ccccc1C(c1ccccc1)(c1ccccc1)n1ccnc1 [CLOTRIMAZOLE]	0.21

====

- Measurement target: CAR (NR1I3) Ile164Ala mutant (Homo sapiens, UniProt Q14994, I164A)
- Sequence (Q14994 whole entry I164A, the tested form may be a part): as the sequence (Q14994 whole entry N165A, the tested form may be a part) above, with I164A, A165N counted along it
- Procedure summary: Activation of human CAR Ile164Ala mutant expressed in human C3A cells at 10 uM after 24 hrs by GAL4-dependent luciferase reporter gene assay relative to control
- Format: cell-based
- Experimental conditions: C3A cells expressing human CAR Ile164Ala mutant, read-out: FC
Some molecules, each annotated with its measured fold induction at 24 h, 10 µM.

Smiles notation	fold induction at 24 h, 10 µM
CSCCN1C(=O)CS[C@@H]1c1ccc(Br)s1	1.3
CCc1cc(Br)ccc1S(=O)(=O)NCc1ccccc1	2.89
O=S(=O)(Nc1nc2c(s1)CCCC2)c1ccc(Br)s1	1.06
O=C1CS[C@H](c2ccncc2)N1Cc1nc2ccccc2[nH]1	1.13
Cc1cccc(NC(=O)N(Cc2ccccc2)Cc2ccccc2)c1	3.74
CCOc1ccccc1CCCNC(=O)Nc1c(CC)cccc1CC	1.48
